target: UniProt:P17752; assay: Biochemical in vitro assay using fluorescence readout (TPH1 inhibition); conditions: human TPH1, fluorescence readout
Sequence (P17752 whole entry): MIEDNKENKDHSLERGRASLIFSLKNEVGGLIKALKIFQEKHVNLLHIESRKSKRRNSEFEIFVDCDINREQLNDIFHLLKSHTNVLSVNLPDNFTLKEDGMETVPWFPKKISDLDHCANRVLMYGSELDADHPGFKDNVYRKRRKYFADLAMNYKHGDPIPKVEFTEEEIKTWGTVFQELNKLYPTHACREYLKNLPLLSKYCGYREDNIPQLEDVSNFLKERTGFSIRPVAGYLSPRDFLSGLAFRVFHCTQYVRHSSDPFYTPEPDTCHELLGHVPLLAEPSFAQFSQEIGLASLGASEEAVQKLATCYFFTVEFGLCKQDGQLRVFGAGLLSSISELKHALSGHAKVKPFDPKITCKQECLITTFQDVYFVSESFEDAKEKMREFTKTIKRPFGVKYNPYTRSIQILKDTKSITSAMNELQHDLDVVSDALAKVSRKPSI
quantity: pIC50
# pIC50: negative log10 of molar concentration; output just the value

[
  {
    "compound": "CCc1cc(Cl)ccc1OCC(=O)N1CCc2nc3sc(C)nn3c2C1c1ccc(C2CC2)cc1F (stereo not shown)",
    "pIC50": 8.15
  },
  {
    "compound": "Cc1nn2c3c(nc2s1)CCN(C(=O)COc1cc(F)cnc1Cl)C3c1ncc(C2CC2)cc1F (stereo not shown)",
    "pIC50": 7.60
  },
  {
    "compound": "CCc1nc(C(=O)NC2CC2)ccc1OCC(=O)N1CCc2nc3sc(C(F)F)nn3c2C1c1sc(C)nc1C (stereo not shown)",
    "pIC50": 7.96
  },
  {
    "compound": "CCc1nc(C)ccc1OCC(=O)N1CCc2nc3sccn3c2C1c1c(C)noc1C (stereo not shown)",
    "pIC50": 6.93
  },
  {
    "compound": "CCOC(=O)c1coc(C2c3c(nc4sc(C)nn34)CCN2C(=O)COc2ccc(N3CCOCC3)nc2Cl)n1 (stereo not shown)",
    "pIC50": 7.70
  }
]

Entry Cc1nn2c3c(nc2s1)CCN(C(=O)C(C)(C)Oc1ccc(C(=O)N(C)C)nc1Cl)C3c1ccc(Cl)cc1F (stereo not shown) , system UniProt:P17752: what pIC50 was measured?
7.26

Entry CCc1ncccc1OCC(=O)N1CCc2nc3sccn3c2C1c1ccc(C)cc1F (stereo not shown) , system UniProt:P17752: what pIC50 was measured?
8.15
